The measured values listed here are drawn from patent US20250134907A1.

- Protocol Description: Pharmacokinetic study in female mice (plasma, liver, bone)
- Format: in vivo, female C57/BL6 mice
- Conditions: female, C57/BL6, mouse, bone/plasma, po, 10 mg/kg, PO (QD*3) 10 mg/kg; read-out: AUClast Ratio (Bone/Plasma)

Smiles	Kp
O=C1Nc2ccc(-c3cc(C(F)(F)F)cc(C(F)(F)F)c3)cc2C(=O)N2CCN(C(=O)COc3ccc(OC(F)(F)F)cc3I)C[C@@H]12	0.779

---

- System Name: RXFP2 (Homo sapiens)
- Construct: expressed in transfected cells
- Sequence (Q8WXD0 whole entry): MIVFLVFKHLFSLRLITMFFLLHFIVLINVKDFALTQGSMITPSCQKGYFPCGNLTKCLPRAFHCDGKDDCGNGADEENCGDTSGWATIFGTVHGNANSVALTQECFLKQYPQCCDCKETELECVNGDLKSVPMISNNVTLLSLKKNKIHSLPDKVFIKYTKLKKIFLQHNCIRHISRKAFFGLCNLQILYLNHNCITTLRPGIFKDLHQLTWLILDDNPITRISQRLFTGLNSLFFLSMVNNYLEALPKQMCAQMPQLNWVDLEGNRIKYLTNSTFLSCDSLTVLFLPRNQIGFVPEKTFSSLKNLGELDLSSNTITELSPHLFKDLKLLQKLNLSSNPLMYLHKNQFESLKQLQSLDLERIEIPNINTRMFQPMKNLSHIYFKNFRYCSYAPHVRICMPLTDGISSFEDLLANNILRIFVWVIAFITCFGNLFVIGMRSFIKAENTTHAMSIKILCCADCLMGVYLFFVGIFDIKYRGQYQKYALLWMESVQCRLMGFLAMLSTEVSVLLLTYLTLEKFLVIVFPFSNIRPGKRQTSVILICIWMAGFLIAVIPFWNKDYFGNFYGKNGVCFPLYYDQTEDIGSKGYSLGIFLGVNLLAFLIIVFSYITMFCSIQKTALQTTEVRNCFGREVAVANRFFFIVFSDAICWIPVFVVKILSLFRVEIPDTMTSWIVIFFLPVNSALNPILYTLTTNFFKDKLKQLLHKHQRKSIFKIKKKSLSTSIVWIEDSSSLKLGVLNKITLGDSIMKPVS
- Protocol Description: HTRF cAMP assay in HEK293T cells stably expressing RXFP2 (HEK-RXFP2)
- Assay type: cell-based
- Conditions: condition (b): 10,000 cells/well, IBMX 200 μM; normalized to 1 nM INSL3 cAMP response
Property Name: % EFF vs. 1 nM INSL3 (b) (%)

Smiles	Property Name	Readout Value
Cc1ccc(C(F)(F)F)cc1-c1ccc2c(c1)C(=O)N1CCN(C(=O)COc3ccc(C(F)(F)F)cc3Cl)C[C@H]1C(=O)N2	% EFF vs. 1 nM INSL3 (b)	53.62
O=C1Nc2ccc(-c3cc(C(F)(F)F)ccc3F)cc2C(=O)N2CCN(C(=O)COc3ccc(C(F)(F)F)cc3Cl)C[C@@H]12	% EFF vs. 1 nM INSL3 (b)	68.09
Cc1cc(OC(F)F)ccc1OCC(=O)N1CCN2C(=O)c3cc(-c4cc(C(F)(F)F)cc(C(F)(F)F)c4)ccc3NC(=O)[C@@H]2C1	% EFF vs. 1 nM INSL3 (b)	113.26
O=C1Nc2ccc(-c3cccc(C(F)(F)F)c3)cc2C(=O)N2CCN(C(=O)COc3ccc(C(F)(F)F)cc3Cl)C[C@@H]12	% EFF vs. 1 nM INSL3 (b)	59.15
Cc1cc(OC(F)(F)F)ccc1OCC(=O)N1CCN2C(=O)c3cc(-c4cccc(C(F)(F)F)c4)ccc3NC(=O)[C@@H]2C1	% EFF vs. 1 nM INSL3 (b)	70.76

---

- Protocol Description: Pharmacokinetic study in female mice (plasma, liver, bone)
- Format: in vivo, female C57/BL6 mice
- Conditions: female, C57/BL6, mouse, plasma, po, 10 mg/kg, plasma; PO 10 mg/kg, one administration; read-out: AUCInf

Compound	Unit Abbrev	AUC(0-inf)
O=C1Nc2ccc(-c3cc(C(F)(F)F)cc(C(F)(F)F)c3)cc2C(=O)N2CCN(C(=O)COc3ccc(OC(F)(F)F)cc3I)C[C@@H]12 [Example 187]	ng·h/mL	2650

---

- Protocol Description: Pharmacokinetic study in female mice (plasma, liver, bone)
- Assay type: in vivo, female C57/BL6 mice
- Conditions: female, C57/BL6, mouse, plasma, po, 10 mg/kg, plasma; PO 10 mg/kg, one administration; read-out: t1/2 (converted)

Smiles	half-life, h
O=C1Nc2ccc(-c3cc(C(F)(F)F)cc(C(F)(F)F)c3)cc2C(=O)N2CCN(C(=O)COc3ccc(OC(F)(F)F)cc3I)C[C@@H]12	3.89

---

- Protocol Description: Pharmacokinetic study in female mice (plasma, liver, bone)
- Type: in vivo, female C57/BL6 mice
- Conditions: female, C57/BL6, mouse; liver; PO 10 mg/kg, one administration

Compound	Tmax [h]
O=C1Nc2ccc(-c3cc(C(F)(F)F)cc(C(F)(F)F)c3)cc2C(=O)N2CCN(C(=O)COc3ccc(OC(F)(F)F)cc3I)C[C@@H]12 [Example 187]	1
